Tested on: Saccharomyces cerevisiae
Test: protein stability index of tFT-peptide fusion (C-terminal peptide) (PSI (0-1 scale)); higher = more stable (slower turnover)
Conditions: genetic background: wild type; temperature: 30 C
Entries and their protein stability index
Answer field: number only, no words.

seq_string=GVFGWAGCGVVL target_desc="Saccharomyces cerevisiae" assay_endpoint="protein stability index" value_observed=0.719

[ask] # protein stability index lookup, item RGPAYATCHLLC
[reply] 0.232

[ask] Also check LMFGDPIEANKE
[reply] 0.67

[ask] Also check DKYKIDKKSKRK
[reply] 0.683

====

Tested on: Saccharomyces cerevisiae
Test: protein stability index of tFT-peptide fusion in deletion strain of DAS1 (PSI (0-1 scale)); higher = more stable (slower turnover)
Note to self: class labels come from recorded protein stability index, ranges listed here: low = under 0.6, mid = from 0.6 up to 0.7, high = 0.7 and over

[ask] Any idea which band RLIQPLPVQFLNY is in?
[reply] mid

[ask] Also check LVVYLSCVACINL
[reply] low

[ask] Also check LKICRQKMNHQN
[reply] high

[ask] Also check CTSWGYKFRTNN
[reply] high

[ask] Also check ARWRVGLWKGAS
[reply] mid

[ask] Also check LVVYLSCVACRN
[reply] low

[ask] Also check LKILRQKMLHQN
[reply] mid

[ask] Also check VRGAVGGRRLVG
[reply] mid

[ask] Also check LKILRQKMNAQN
[reply] mid

[ask] Also check LVVYLSCVACINF
[reply] low

[ask] Also check LVVYLSCVACPN
[reply] low

[ask] Also check FVVYLSCVACIN
[reply] low

[ask] Also check LVVYLSCVMCIN
[reply] low

[ask] Also check KKHKKGQYQKIN
[reply] low

[ask] Also check ARWRVGLWHGAS
[reply] mid

[ask] Also check ARRRVGLWRGAS
[reply] high

====

Entries and their protein stability index
Tested on: Saccharomyces cerevisiae
Experiment: protein stability index of tFT-peptide fusion (C-terminal peptide) (PSI (0-1 scale)); higher = more stable (slower turnover)
Conditions: genetic background: cdc34-1; temperature: 37 C
Answer field: number only, no words.

For orientation, consider the following solved cases.
seq_string=SRPLYVMICTRV assay_endpoint="protein stability index" value_observed=0.438
seq_string=LVDPFAALRHVV assay_endpoint="protein stability index" value_observed=0.624
seq_string=RVRRETRLRQIA assay_endpoint="protein stability index" value_observed=0.597

[ask] # protein stability index lookup, item WSLPPLLSPLYF
[reply] 0.717

[ask] Also check LVLVVFCPLWFW
[reply] 0.483

[ask] Also check IVVSSRFLGFFC
[reply] 0.53

====

Entries and their protein stability index
Tested on: Saccharomyces cerevisiae
Assay: protein stability index of tFT-peptide fusion in wild type (PSI (0-1 scale)); higher = more stable (slower turnover)
Conditions: genetic background: wild type
Answer field: number only, no words.

For orientation, consider the following solved cases.
seq_string=AITLKMCPLLLR target_desc="Saccharomyces cerevisiae" value_observed=0.296
seq_string=AITLPMCPLLLRP target_desc="Saccharomyces cerevisiae" value_observed=0.281
seq_string=KKHKCGQKQKIN target_desc="Saccharomyces cerevisiae" value_observed=0.0807
seq_string=VRLAVGGWRLVG target_desc="Saccharomyces cerevisiae" value_observed=0.131
seq_string=CLVSLPITLFFR target_desc="Saccharomyces cerevisiae" value_observed=0.104

[ask] Request - read-out protein stability index | tested on Saccharomyces cerevisiae | sequence LVVYLSCVACINF
[reply] 0.024

[ask] Also check GLYMCSVGCWFI
[reply] 0.44

[ask] Also check ARWRVELWRGAS
[reply] 0.203

[ask] Also check KKHKKGQKQKIP
[reply] 0.336

[ask] Also check CFVSLPILLFFR
[reply] 0.0595

[ask] Also check PSLAASFWSVVG
[reply] 0.694

[ask] Also check AIPLPMCPLLLR
[reply] 0.28

[ask] Also check PSLAAQFWRVVG
[reply] 0.14

[ask] Also check PSLAASFWRQVG
[reply] 0.146

[ask] Also check CLVPLPILLFFR
[reply] 0.0703

[ask] Also check AHWRVGLWRGAS
[reply] 0.43

[ask] Also check TRGAVGGWRLVG
[reply] 0.162

[ask] Also check CTSCGYKFRPNN
[reply] 0.727

[ask] Also check VRGAVGGRRLVG
[reply] 0.641

[ask] Also check PDKRNHLHKLLN
[reply] 0.265

[ask] Also check ARWRVGLWRGASP
[reply] 0.663

[ask] Also check AITLPMCPVLLR
[reply] 0.322

[ask] Also check LKICRQKMNHQN
[reply] 0.254

[ask] Also check KKHKKGQKQKINP
[reply] 0.658

[ask] Also check CNSCGYKFRTNN
[reply] 0.193

[ask] Also check RVTRLDAIYFRV
[reply] 0.342

[ask] Also check ARRRVGLWRGAS
[reply] 0.538
